Hey, just so you know, these numbers are from the supplement of paper PMC4466140.

Molecular target: CaLsb1
Assay: SPOT peptide array binding signal intensity (averaged, normalized) (arbitrary units (background-subtracted, floor 0; scale differs between SH3 domains)); higher = stronger binding of the SH3 domain to the peptide
Exercise: for every item that follows, state its recorded SPOT peptide array binding signal intensity.

binder: PSPSSSPPPIPKTAN
result: ≤ 0
--
binder: HVRRSILALPLGVLL
result: 0.25
--
binder: RFKRHRLEFPFNESE
result: ≤ 0
--
binder: QRKSLRRPTLSKPAV
result: 0.5
--
binder: RKQRSIPLSPIVPES
result: 0.5

// batch mode: one SPOT peptide array binding signal intensity value per listed entry
1. RSLRKRPTSPSISGS
2. RPPRPPPKPLHLRTE

(A)
1. ≤ 0
2. 0.5
